From: ChEMBL document CHEMBL4190295

Entries annotated with measured pIC50
- System: P388
- assay_notes: Cytotoxicity against mouse P388 cells assessed as reduction in cell viability by SRB assay
- Format: functional, cell-based
pIC50: −log10 of the molar value.

compound: Cc1c2ccncc2c(C)c2c1[nH]c1ccccc12
inequality_sign: =
pIC50: 5.87
--
compound: CC(=O)O[C@@H]1CC[C@]2(C)[C@H](CC[C@]3(CNc4ccccc4)O[C@H](C4=CCOC4=O)C[C@H]32)[C@]1(C)COC(c1ccccc1)(c1ccccc1)c1ccccc1
inequality_sign: <
pIC50: 4.30
--
compound: CC(=O)O[C@@H]1CC[C@]2(C)[C@H](CC[C@]3(CNc4cccc(F)c4)O[C@H](C4=CCOC4=O)C[C@H]32)[C@]1(C)CO[Si](C)(C)C(C)(C)C
inequality_sign: =
pIC50: 5.19
--
compound: CC(=O)O[C@@H]1CC[C@]2(C)[C@H](CC[C@]3(CNc4ccccc4F)O[C@H](C4=CCOC4=O)C[C@H]32)[C@]1(C)COC(c1ccccc1)(c1ccccc1)c1ccccc1
inequality_sign: <
pIC50: 4.30
--
compound: C=C1CC[C@@H]2[C@](C)(CO)[C@H](O)CC[C@@]2(C)[C@@H]1C/C=C1/C(=O)OC[C@H]1O [ANDROGRAPHOLIDE]
inequality_sign: =
pIC50: 5.65
--
compound: CC(=O)O[C@@H]1CC[C@]2(C)[C@H](CC[C@]3(CNc4ccc(Br)cc4)O[C@H](C4=CCOC4=O)C[C@H]32)[C@]1(C)CO[Si](c1ccccc1)(c1ccccc1)C(C)(C)C
inequality_sign: =
pIC50: 4.32
--
compound: CC(=O)O[C@@H]1CC[C@]2(C)[C@H](CC[C@]3(CNc4ccc(Br)cc4)O[C@H](C4=CCOC4=O)C[C@H]32)[C@]1(C)COC(c1ccccc1)(c1ccccc1)c1ccccc1
inequality_sign: <
pIC50: 4.30
--
compound: COc1ccc(NC[C@]23CC[C@@H]4[C@](C)(CO[Si](c5ccccc5)(c5ccccc5)C(C)(C)C)[C@H](OC(C)=O)CC[C@@]4(C)[C@@H]2C[C@@H](C2=CCOC2=O)O3)cc1OC
inequality_sign: =
pIC50: 4.56
--
compound: CC(=O)O[C@@H]1CC[C@]2(C)[C@H](CC[C@]3(CNc4ccccc4F)O[C@H](C4=CCOC4=O)C[C@H]32)[C@]1(C)CO[Si](C(C)C)(C(C)C)C(C)C
inequality_sign: =
pIC50: 4.67
--
compound: CC(=O)O[C@@H]1CC[C@]2(C)[C@H](CC[C@]3(CNc4ccccc4)O[C@H](C4=CCOC4=O)C[C@H]32)[C@]1(C)CO[Si](c1ccccc1)(c1ccccc1)C(C)(C)C
inequality_sign: =
pIC50: 4.34
--
compound: CC(=O)O[C@@H]1CC[C@]2(C)[C@H](CC[C@]3(CNc4ccccc4)O[C@H](C4=CCOC4=O)C[C@H]32)[C@]1(C)CO[Si](C)(C)C(C)(C)C
inequality_sign: =
pIC50: 5.28
